For each of the sequences below, state its apparent KD of MS2 coat protein.
# Test system: MS2 coat protein
# Experimental protocol: apparent KD of MS2 coat protein; higher = weaker reporter binding
# Condition: Eterna round: R107; input ligand: theophylline 20 uM
Answers are plain numbers, in nM.

>  <Polymer sequence>
AGUCUGGACUCGGCCGCCACUCGUGAUGCUUUGGCACAUGAGGAUCACCCAUGUGGUCGGCCUUAGAGGACCGGGAGUACCAGCU [Zaraoned]

>  <Observation type>
apparent KD of MS2 coat protein

>  <Observed value>
65.9

$$$$
>  <Polymer sequence>
ACAUGAGGAUCACCCAUGUUCCUCAUUGAUACCAGUGAAUUUAGACGCCCUUGGCAGCGAGUUUUUUUAUAAGAAGUUUUUUUUU [6.G]

>  <Observation type>
apparent KD of MS2 coat protein

>  <Observed value>
659

$$$$
>  <Polymer sequence>
AUAAUGAGUGGUGGAUAGGUGAUCCUCUUACGAGGACCGGUACGGCCGCCACUCGAUAACAUGAGGAUCACCCAUGUAAUAAUAA [|T'-M'-Trp-Ms2|_Design19]

>  <Observation type>
apparent KD of MS2 coat protein

>  <Observed value>
22.6

$$$$
>  <Polymer sequence>
AUCAUAAUAGACUCGUUAGAUUAUAUGGAACGAGGACCGGUACGGCCGCCACUCGUGAUGUACAUGAGGAUCACCCAUGUUAGCA [JR_SSTryptoA_Sub002]

>  <Observation type>
apparent KD of MS2 coat protein

>  <Observed value>
17.4

$$$$

# map each sequence to its apparent KD of MS2 coat protein
1. ACCAUGUAAUCAGAUACCAGACAUCUUUUAAAUCAUAUUACAUGAGGAUCACCCAUGUUGGUCCCUUGGCAGCUGAAAUAUUUCA [JR_Nu_SSTheophyB_Sub025]
2. GUACCGUAAACGGCCGCCACUGACAUGAGGAUCACCCAUGUGCUGGUGGUGCACAACCUCAGGUUCAGGACCGGGUUUCCGAGCU [theeternabot_exclusion_MS2_Trp_B_50]
3. CUUGUUUAUGGAAGGAGCGCGAUUACAUAACAUGAGGAUCACCCAUGUAAGAAAUUAUUCAUGCAGGUAGGUCGCCAUGGGUGGG [Same State Arginine B GF7]

RESULT:
1: 351; 2: 45.3; 3: 105

# batch: return apparent KD of MS2 coat protein for each of the 6 sequences below
1. CACGGAAGAGUGGAUCACCCUCUUAAUAAACGAGGACCGGUACGGCCGCCACUCGAAAACCGUGACCUGUACGAAAAGUGCAGGA
2. AUGGACGGCGAUCUGGGUUUACCAGAUCGGCGAGGACCGGUACGGCCGCCACUCGUGUUUAUUUAACAUGAGGAUCACCCAUGUA [SSTA #2]
3. UGACAUUGCUGCGAUACCAGACAUGAGGAUCACCCAUGUACCAAGGUACGAAAAUAACAUGUCCCUUGGCAGCGCAGCAAUGUCU [MAT - Exclusion Theophlline B - Mod of Eli - D4]
4. UCGUUUGAGGCGGCCGCCACUGGUCUCAUGGUCAACAUGAGGAUCACCCAUGUAUCUUUGCUAAGCAGGACCGGGCCUCGAGCGA [#19 Exclusion Tryptophan B]
5. UAUCCACAUGAGGAUCACCCAUGUAGGGAAGGAGCGGUGAAUGCACCAGGUAGGUCGCCUUGCUGAGGACAGCCGGUGGAUUCGU [Exclusion - Arginine A (Freestyle 26)]
6. GACCUUAUCUGAAGGAGCGAGGUAAAUAGGGUUGAGCAUACAUGAGGAUCACCCAUGUGGCCUCAGGUAGGUCGCAGAUAAGACA [Exclusion Arginine B GF29]

RESULT:
1. 202
2. 163
3. 25.7
4. 87.4
5. 19
6. 308

Report apparent KD of MS2 coat protein for each item below.
1. AUACAUGAGGAUCACCCAUGUAUAGAUGAAGGAGCGACCAGAGGGUCAGGUAGGUCGCAUCACAUGAGGAUCACCCAUGUACUUA [DOUBLE!!! :-D #9]
2. UUGUUGUUUGGAAGGAGCGUGUAAGAUUAAGAACAUGAGGAUCACCCAUGUUGUAAGGUAGCACAGGUAGGUCGCCGGGUGGUGG [11.T]
3. ACAUGAGGAUCACCCAUGUCAAGGCACGAUACCAGCUGAUCCGGUGGCCCUUGGCAGCGUCACGUUUGGUCCCGCGGAUGACACG [p'pmullin]

RESULT:
43.7
24.4
139
